The reported measurements were obtained from ChEMBL document CHEMBL6134773.

Measured EC50 of individual entries
target: MALAT1 triple helix RNA; experiment: Binding affinity to MALAT1 triple helix RNA (unknown origin) by fluorescence-based screening assay
Report as a plain number; the unit nM is understood.

These solved cases illustrate the format of a correct answer.
Line notation: N=C(N)c1ccc(-c2ccc(-c3ccc(C(=N)N)cc3)o2)cc1
EC50, nM: 600

Line notation: O=c1c2ccccc2n2c(=O)c3ccccc3nc2n1CCCn1c(=O)c2ccccc2n2c(=O)c3ccccc3nc12
EC50, nM: 1100

Please find the next molecule below.
Inquiry: Note EC50 for the molecule shown: `O=c1c2ccccc2n2c(=O)c3ccccc3nc2n1Cc1cccc(C(F)(F)F)c1`
Reply text: 800
